Data provenance: patent US20240343803A1

Recorded AUC % to COM701-hIgG1, one value per entry.
target under test: T1, human PVRIG on FlpinCHO-PVRIG cells (human, UniProt Q6DKI7 41-326)
T1 construct: whole, on cells
T1 sequence (looked up): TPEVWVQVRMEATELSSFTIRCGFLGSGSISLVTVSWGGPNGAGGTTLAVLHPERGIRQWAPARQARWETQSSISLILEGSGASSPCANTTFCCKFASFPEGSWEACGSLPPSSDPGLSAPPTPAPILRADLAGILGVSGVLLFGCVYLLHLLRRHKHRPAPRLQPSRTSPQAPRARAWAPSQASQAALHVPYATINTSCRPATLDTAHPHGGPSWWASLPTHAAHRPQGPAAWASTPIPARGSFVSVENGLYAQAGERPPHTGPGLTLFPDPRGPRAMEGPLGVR
measurement description: FACS, FlpinCHO-PVRIG cells
measurement name: AUC % to COM701-hIgG1 (%)

1) PVRIG-A118-H5 (Fc fusion, humanized variant of PVRIG-A118; also called A118.VH5; not shown: constant part not restated for the humanized forms; parents are VHH-hinge-CH2-CH3 of human IgG1; detected by anti-human) EVQLVESGGGLVQPGGSLRLSCAASETYFDLYVMGWYRQAPGKDRELVATITYTGSIKYVDSVKGRFTISRGDAKNSVYLQMNSLRAEDTAVYYCNADPSGLGRKVYWGQGTMVTVSS ... 128
2) PVRIG-A105 (Fc fusion, heavy chain antibody VHH-hinge-CH2-CH3, human IgG1 constant part; not shown: human IgG1 hinge-CH2-CH3) EVQLVESGGGLVQAGGSLRLSCAASGRTFDRHTMTWFRQAPGKEREFVATASRIPGDTYYSHSVKGRFTISRDNAKNTVYLQLNNLKPEDTAVYYCAATSAYCSEVDCYEKGSWYDNWGQGIQVTVSS ... 124
3) PVRIG-A50 (Fc fusion, heavy chain antibody VHH-hinge-CH2-CH3, human IgG1 constant part; also called PVRIG-50; not shown: human IgG1 hinge-CH2-CH3) EVQLVESGGGLVQPGGSLRLSCAASGFTFSYYDMSWVRQAPGKGLEWVSTINSNGGRTSYVDSVKGRFTISRDNTKNTLYLQMNSLKPEDTAVYYCVEGDPHNFGLENLSLRDFGSWGQGTQVTVSS ... 73.4
4) PVRIG-A50-H2a (Fc fusion, humanized variant of PVRIG-A50; also called A50.VH2a; not shown: constant part not restated for the humanized forms; parents are VHH-hinge-CH2-CH3 of human IgG1; detected by anti-human) EVQLVESGGGLVQPGGSLRLSCAASGFTFSYYDMSWVRQAPGKGLEWVSTINSNAGRTSYVDSVKGRFTISRDNTKNTLYLQMNSLRAEDTAVYYCVEGDPHNFGLESLSLRDFGSWGQGTMVTVSS ... 61.9
5) PVRIG-A105-H1 (Fc fusion, humanized variant of PVRIG-A105; also called A105.VH1; not shown: constant part not restated for the humanized forms; parents are VHH-hinge-CH2-CH3 of human IgG1; detected by anti-human) EVQLVESGGGLVQPGGSLRLSCAASGRTFDRHTMSWFRQAPGKEREFVATASRIPGDTYYVDSVKGRFTISRDNAKNSLYLQMNSLRAEDTAVYYCAATSAYCSEVDCYEKGSWYDNWGQGTMVTVSS ... 123
6) PVRIG-A105-H3 (Fc fusion, humanized variant of PVRIG-A105; also called A105.VH3; not shown: constant part not restated for the humanized forms; parents are VHH-hinge-CH2-CH3 of human IgG1; detected by anti-human) EVQLVESGGGLVQPGGSLRLSCAASGRTFDRHTMTWFRQAPGKEREFVATASRIPGDTYYVDSVKGRFTISRDNAKNSVYLQMNSLRAEDTAVYYCAATSAYCSEVDCYEKGSWYDNWGQGTMVTVSS ... 125
7) PVRIG-A118-H3 (Fc fusion, humanized variant of PVRIG-A118; also called A118.VH3; not shown: constant part not restated for the humanized forms; parents are VHH-hinge-CH2-CH3 of human IgG1; detected by anti-human) EVQLVESGGGLVQPGGSLRLSCAASETYFDLYVMGWYRQAPGKDRELVATITYTGSIKYVDSVKGRFTISRGDAKNSLYLQMNSLRAEDTAVYYCNADPSGLGRKVYWGQGTMVTVSS ... 129
8) PVRIG-A118-H7 (Fc fusion, humanized variant of PVRIG-A118; also called A118.VH7; not shown: constant part not restated for the humanized forms; parents are VHH-hinge-CH2-CH3 of human IgG1; detected by anti-human) EVQLVESGGGLVQPGGSLRLSCAASETYFDLYVMGWYRQAPGKDRELVATITYTGSIKYVDSVKGRFTISRGDAKNSLYLQMNSLRAEDTAVYFCNADPSGLGRKVYWGQGTMVTVSS ... 126
9) PVRIG-A50-H1a (Fc fusion, humanized variant of PVRIG-A50; also called A50.VH1a; not shown: constant part not restated for the humanized forms; parents are VHH-hinge-CH2-CH3 of human IgG1; detected by anti-human) EVQLVESGGGLVQPGGSLRLSCAASGFTFSYYDMSWVRQAPGKGLEWVSTINSDGGRTSYVDSVKGRFTISRDNSKNTLYLQMNSLRAEDTAVYYCVEGDPHNFGLENLSLRDFGSWGQGTMVTVSS ... 70.4
10) PVRIG-A105-H4 (Fc fusion, humanized variant of PVRIG-A105; also called A105.VH4; not shown: constant part not restated for the humanized forms; parents are VHH-hinge-CH2-CH3 of human IgG1; detected by anti-human) EVQLVESGGGLVQPGGSLRLSCAASGRTFDRHTMTWFRQAPGKEREFVATASRIPGDTYYSHSVKGRFTISRDNAKNSLYLQMNSLRAEDTAVYYCAATSAYCSEVDCYEKGSWYDNWGQGTMVTVSS ... 115
11) PVRIG-A50-H1b (Fc fusion, humanized variant of PVRIG-A50; also called A50.VH1b; not shown: constant part not restated for the humanized forms; parents are VHH-hinge-CH2-CH3 of human IgG1; detected by anti-human) EVQLVESGGGLVQPGGSLRLSCAASGFTFSYYDMSWVRQAPGKGLEWVSTINSDGGRTSYVDSVKGRFTISRDNSKNTLYLQMNSLRAEDTAVYYCVEGDPHNFGLESLSLRDFGSWGQGTMVTVSS ... 60.5
12) PVRIG-A105-H3a (Fc fusion, humanized variant of PVRIG-A105; also called A105.VH3a; not shown: constant part not restated for the humanized forms; parents are VHH-hinge-CH2-CH3 of human IgG1; detected by anti-human) EVQLVESGGGLVQPGGSLRLSCAASGRTFDRHTMTWFRQAPGKEREFVATASRIPGDTYYVDSVKGRFTISRDNAKNSVYLQMNSLRAEDTAVYYCAATSAYSSEVDSYEKGSWYDNWGQGTMVTVSS ... 15.9
13) PVRIG-A118-H4 (Fc fusion, humanized variant of PVRIG-A118; also called A118.VH4; not shown: constant part not restated for the humanized forms; parents are VHH-hinge-CH2-CH3 of human IgG1; detected by anti-human) EVQLVESGGGLVQPGGSLRLSCAASETYFDLYVMGWYRQAPGKDRELVATITYTGSIKYVDSVKGRFTISRGDAKNSLSLQMNSLRAEDTAVYYCNADPSGLGRKVYWGQGTMVTVSS ... 132
14) PVRIG-A118 (Fc fusion, heavy chain antibody VHH-hinge-CH2-CH3, human IgG1 constant part; not shown: human IgG1 hinge-CH2-CH3) QVQLVESGGGLVQAGGSLRLSCAASETYFDLYVMGWYRQAPGKDRELVATITYTGSIKIVDSVKDRFTISRGDAKNTVSLQMSSLKPEDTAVYFCNADPSGLGRKVYWGQGTQVTVSS ... 136
15) PVRIG-A50-H1e (Fc fusion, humanized variant of PVRIG-A50; also called VH1e; not shown: constant part not restated for the humanized forms; parents are VHH-hinge-CH2-CH3 of human IgG1; detected by anti-human) EVQLVESGGGLVQPGGSLRLSCAASGFTFSYYDMSWVRQAPGKGLEWVSTINSNAGRTSYVDSVKGRFTISRDNSKNTLYLQMNSLRAEDTAVYYCVEGDPHNFGLESLSLRDFGSWGQGTMVTVSS ... 60.3
